- system.under.test: T1, EsCas13d, nuclease-dead (Eubacterium siraeum, UniProt B0MS50, R295A;H300A;R849A;H854A)
- T1 sequence: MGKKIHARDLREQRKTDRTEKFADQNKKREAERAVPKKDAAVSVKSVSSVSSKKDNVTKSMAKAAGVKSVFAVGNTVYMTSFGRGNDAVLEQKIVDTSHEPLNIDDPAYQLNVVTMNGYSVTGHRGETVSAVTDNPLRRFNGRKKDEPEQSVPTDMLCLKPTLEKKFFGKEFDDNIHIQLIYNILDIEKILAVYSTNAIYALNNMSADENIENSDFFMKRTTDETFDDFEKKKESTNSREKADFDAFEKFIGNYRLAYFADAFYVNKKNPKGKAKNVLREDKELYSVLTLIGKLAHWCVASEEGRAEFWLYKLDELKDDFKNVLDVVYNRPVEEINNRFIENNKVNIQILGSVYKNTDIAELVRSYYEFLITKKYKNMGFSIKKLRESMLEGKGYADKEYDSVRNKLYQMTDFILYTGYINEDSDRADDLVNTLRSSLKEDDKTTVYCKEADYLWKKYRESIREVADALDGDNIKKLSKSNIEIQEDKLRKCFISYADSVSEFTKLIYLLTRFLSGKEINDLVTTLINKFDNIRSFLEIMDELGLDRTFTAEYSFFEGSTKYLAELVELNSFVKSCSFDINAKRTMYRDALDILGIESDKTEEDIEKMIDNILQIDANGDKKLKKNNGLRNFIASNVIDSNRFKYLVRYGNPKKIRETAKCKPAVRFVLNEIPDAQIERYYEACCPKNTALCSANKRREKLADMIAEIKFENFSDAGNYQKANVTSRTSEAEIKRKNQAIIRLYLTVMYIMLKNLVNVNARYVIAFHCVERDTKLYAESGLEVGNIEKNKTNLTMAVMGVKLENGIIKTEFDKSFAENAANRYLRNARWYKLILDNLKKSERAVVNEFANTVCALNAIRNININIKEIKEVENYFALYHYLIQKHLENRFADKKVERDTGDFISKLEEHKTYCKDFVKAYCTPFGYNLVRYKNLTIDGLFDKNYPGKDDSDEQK
- protocol.notes: crRNA (strand 1, pre-loaded); Mg2+; 40 mM Tris-HCl pH 7.5, 150 mM NaCl, 6 mM MgCl2, 1 mM DTT, 0.1% Tween-20, 0.2 mg/ml BSA; 25 C; 10 min per concentration, then washed
- experimental.parameters: tags: His6-TwinStrep-SUMO cleaved; N-terminal SNAP kept (SNAP-Surface 488); label: 3' end held by stalled T7 RNA polymerase
quantity.name: Kd (nM)
Please reply with the bare figure in nM and do not write the unit itself.

binder	Kd, nM
target 3 insU 3' of 9,insA 3' of 6 (mixed) RNA 1: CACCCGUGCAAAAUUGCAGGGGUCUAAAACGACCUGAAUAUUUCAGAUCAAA RNA 2: GGGAAUGGAUCCACAUCUACGAAUUCGUUUUUGAUCUGAAAUAUUUCAAGGUCUGCAGAUCGGAAGAGCACACGU	85
target 1 del7,del8 (mixed) RNA 1: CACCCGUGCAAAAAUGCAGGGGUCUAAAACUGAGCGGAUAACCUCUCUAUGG RNA 2: GGGAAUGGAUCCACAUCUACGAAUUCGUACCAUAGAGAGGUUACGCUCACCGAGAUCGGAAGAGCACACGU	10.6
target 1 A18U,C22A (mixed) RNA 1: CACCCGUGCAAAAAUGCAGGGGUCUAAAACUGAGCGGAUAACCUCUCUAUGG RNA 2: GGGAAUGGAUCCACAUCUACGAAUUCGUAACAUUGAGAGGUUAUCCGCUCACCGAGAUCGGAAGAGCACACGU	58

Kd for target 2 MT 5'PFS GAA 3'PFS UGC (mixed) RNA 1: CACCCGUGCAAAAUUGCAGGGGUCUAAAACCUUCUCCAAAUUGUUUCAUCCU RNA 2: GGGAAUGGAUCCACAUCUACGAAUUCGAAAGGAUGAAACAAUUUGGAGAAGUGCAGAUCGGAAGAGCACACGU ?
13.2
